- System Tested: Dipeptidyl peptidase 1 (Homo sapiens, UniProt P53634)
- Sequence (P53634 25-134 limits assumed): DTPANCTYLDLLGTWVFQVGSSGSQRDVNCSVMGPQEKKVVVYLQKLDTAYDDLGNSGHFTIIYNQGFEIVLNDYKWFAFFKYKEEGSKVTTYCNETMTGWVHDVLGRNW
- Sequence (P53634 231-394 limits assumed): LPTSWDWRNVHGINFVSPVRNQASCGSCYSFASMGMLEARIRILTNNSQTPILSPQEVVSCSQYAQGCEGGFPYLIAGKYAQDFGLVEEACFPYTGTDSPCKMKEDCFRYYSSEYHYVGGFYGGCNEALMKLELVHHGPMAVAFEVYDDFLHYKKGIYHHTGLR
- Sequence (P53634 395-463 limits assumed): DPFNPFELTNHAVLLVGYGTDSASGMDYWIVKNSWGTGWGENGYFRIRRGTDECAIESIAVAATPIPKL
- Assay Details: Inhibition of cathepsin C in human THP1 cells assessed as inhibition of H-Gly-Phe-AFC cleavage by fluorescence assay
- Assay type: cell-based, THP-1
pIC50: −log10 of the molar value.
Below is a list of entries, each paired with its recorded pIC50 value.

# Chem Smiles, pIC50
records = [
    ("CN1Cc2ccc(-c3ccc(C[C@@H](C#N)NC(=O)C4(N)CCOCC4)cc3)cc2C1=O", 7.30),
    ("CS(=O)(=O)c1cccc(-c2ccc(C[C@@H](C#N)NC(=O)C3(N)CCOCC3)cc2)c1", 8.10),
    ("CN1Cc2cc(-c3ccc(C[C@@H](C#N)NC(=O)[C@@H]4CCCCN4)cc3)ccc2C1=O", 8.10),
    ("N#Cc1ccc(-c2ccc(C[C@@H](C#N)NC(=O)[C@@H]3C[C@@H](O)CCN3)cc2)cc1", 7.90),
    ("N#C[C@H](Cc1ccc(-c2ccccc2)cc1)NC(=O)[C@@H]1CCCCN1", 6.80),
    ("N#C[C@H](Cc1ccc(-c2ccccc2)cc1)NC(=O)C1(N)CCOCC1", 7.50),
    ("CC[C@H](N)C(=O)N[C@H](C#N)Cc1ccc(-c2ccccc2)cc1", 7.20),
    ("N#Cc1ccc(-c2ccc(C[C@@H](C#N)NC(=O)[C@@H]3CCCCN3)cc2)cc1", 8.00),
    ("CN1Cc2cc(-c3ccc(C[C@@H](C#N)NC(=O)[C@@H]4C[C@@H](O)CCN4)cc3)ccc2C1=O", 7.40),
    ("CSc1cc(-c2ccc(C[C@@H](C#N)NC(=O)[C@@H]3CCCCN3)cc2)ccc1C#N", 9.00),
    ("N#Cc1ccc(-c2ccc(C[C@@H](C#N)NC(=O)C3(N)CCCCC3)cc2)cc1", 8.50),
]

---

- System Tested: UniProt:P53634
- Assay Details: Inhibition of recombinant human cathepsin C using H-Gly-Arg-AMC as substrate preincubated for 30 mins before substrate addition measured after 60 mins by fluorescence assay
pIC50: −log10 of the molar value.
Metric Name: pIC50

# Chem Smiles, Metric Name, Quantitative Readout
rows = [
    ("CN1Cc2cc(-c3ccc(C[C@@H](C#N)NC(=O)[C@@H]4C[C@@H](O)CCN4)cc3)ccc2C1=O", "pIC50", 8.40),
    ("N#C[C@H](Cc1ccc(-c2ccccc2)cc1)NC(=O)C1(N)CCOCC1", "pIC50", 8.70),
    ("CN1Cc2cc(-c3ccc(C[C@@H](C#N)NC(=O)[C@@H]4CCCCN4)cc3)ccc2C1=O", "pIC50", 7.60),
    ("CS(=O)(=O)c1cccc(-c2ccc(C[C@@H](C#N)NC(=O)C3(N)CCOCC3)cc2)c1", "pIC50", 9.10),
    ("N#Cc1ccc(-c2ccc(C[C@@H](C#N)NC(=O)C3(N)CCCCC3)cc2)cc1", "pIC50", 8.60),
]

---

- Assay Details: Clearance in mouse
- Type: ADME, organism-based
- Assay Context: in vivo

# Chem Smiles, Measurement Unit, clearance
records = [
    ("N#Cc1ccc(-c2ccc(C[C@@H](C#N)NC(=O)C3(N)CCOCC3)cc2)cc1", "mL/min/kg", 9),
]

---

- Assay Details: Volume of distribution at steady state in mouse
- Format: ADME, organism-based
- Assay Context: in vivo, read-out: Vdss
Metric Name: Vd (L/kg)

# Chem Smiles, Quantitative Readout
data = [
    ("N#Cc1ccc(-c2ccc(C[C@@H](C#N)NC(=O)C3(N)CCOCC3)cc2)cc1", 1.6),
]

---

- Assay Details: Intrinsic clearance in rat hepatocytes assessed per million cells
- Format: ADME, cell-based, Hepatocyte
- Assay Context: read-out: CLH
Examples of compounds with documented hepatocyte CLint follow.

# Chem Smiles, Readout Relation, hepatocyte CLint, µL/min/1e6 cells
data = [
    ("CN1Cc2cc(-c3ccc(C[C@@H](C#N)NC(=O)[C@@H]4CCCCN4)cc3)ccc2C1=O", "=", 5),
    ("CSc1cc(-c2ccc(C[C@@H](C#N)NC(=O)[C@@H]3CCCCN3)cc2)ccc1C#N", "=", 13),
    ("N#Cc1ccc(-c2ccc(C[C@@H](C#N)NC(=O)[C@@H]3C[C@@H](O)CCN3)cc2)cc1", "=", 4),
    ("CN1Cc2cc(-c3ccc(C[C@@H](C#N)NC(=O)[C@@H]4C[C@@H](O)CCN4)cc3)ccc2C1=O", "<", 4),
    ("N#Cc1ccc(-c2ccc(C[C@@H](C#N)NC(=O)[C@@H]3CCCCN3)cc2)cc1", "<", 3),
    ("N#Cc1ccc(-c2ccc(C[C@@H](C#N)NC(=O)C3(N)CCOCC3)cc2)cc1", "=", 2.9),
    ("N#Cc1ccc(-c2ccc(C[C@@H](C#N)NC(=O)C3(N)CCCCC3)cc2)cc1", "=", 15),
    ("N#C[C@H](Cc1ccc(-c2ccccc2)cc1)NC(=O)[C@@H]1CCCCN1", ">", 150),
    ("CN1Cc2ccc(-c3ccc(C[C@@H](C#N)NC(=O)C4(N)CCOCC4)cc3)cc2C1=O", "=", 41),
    ("N#C[C@H](Cc1ccc(-c2ccccc2)cc1)NC(=O)C1(N)CCOCC1", ">", 150),
    ("CS(=O)(=O)c1cccc(-c2ccc(C[C@@H](C#N)NC(=O)C3(N)CCOCC3)cc2)c1", "<", 3),
]

---

Documented logD across a set of compounds
- Assay Details: Lipophilicity, log D of the compound
- Format: physicochemical
- Assay Context: octanol/water

# Chem Smiles, logD
records = [
    ("N#Cc1ccc(-c2ccc(C[C@@H](C#N)NC(=O)C3(N)CCCCC3)cc2)cc1", 2.9),
    ("CN1Cc2cc(-c3ccc(C[C@@H](C#N)NC(=O)[C@@H]4C[C@@H](O)CCN4)cc3)ccc2C1=O", 0.5),
    ("CS(=O)(=O)c1cccc(-c2ccc(C[C@@H](C#N)NC(=O)C3(N)CCOCC3)cc2)c1", 0.8),
    ("N#Cc1ccc(-c2ccc(C[C@@H](C#N)NC(=O)C3(N)CCOCC3)cc2)cc1", 1.9),
]

---

- Assay Details: Clearance in dog
- Type: ADME, organism-based, Canis lupus familiaris
- Assay Context: in vivo

# Chem Smiles, clearance
records = [
    ("N#Cc1ccc(-c2ccc(C[C@@H](C#N)NC(=O)C3(N)CCOCC3)cc2)cc1", "2 mL/min/kg"),
]

---

- System Tested: Dipeptidyl peptidase 1 (Homo sapiens)
- Assay Details: Inhibition of recombinant human cathepsin C using H-Gly-Arg-AMC as substrate preincubated for 30 mins before substrate addition measured after 60 mins by fluorescence assay
pIC50: −log10 of the molar value.
pIC50 for assorted compounds

# Chem Smiles, pIC50
rows = [
    ("CSc1cc(-c2ccc(C[C@@H](C#N)NC(=O)[C@@H]3CCCCN3)cc2)ccc1C#N", 8.40),
    ("N#Cc1ccc(-c2ccc(C[C@@H](C#N)NC(=O)[C@@H]3CCCCN3)cc2)cc1", 7.40),
    ("N#Cc1ccc(-c2ccc(C[C@@H](C#N)NC(=O)[C@@H]3C[C@@H](O)CCN3)cc2)cc1", 8.30),
    ("CC[C@H](N)C(=O)N[C@H](C#N)Cc1ccc(-c2ccccc2)cc1", 8.70),
]

---

- Assay Details: Clearance in rat
- Format: ADME, organism-based
- Assay Context: in vivo
Overview of recorded clearance for various compounds
Metric Name: clearance (mL/min/kg)

# Chem Smiles, Quantitative Readout
rows = [
    ("N#Cc1ccc(-c2ccc(C[C@@H](C#N)NC(=O)C3(N)CCOCC3)cc2)cc1", 9),
    ("N#Cc1ccc(-c2ccc(C[C@@H](C#N)NC(=O)[C@@H]3CCCCN3)cc2)cc1", 16),
]

---

- Assay Details: Intrinsic clearance in human microsomes
- Type: ADME, Microsome
The following compounds are shown together with reported microsomal CLint values.
Metric Name: microsomal CLint

# Chem Smiles, Result
rows = [
    ("N#Cc1ccc(-c2ccc(C[C@@H](C#N)NC(=O)C3(N)CCOCC3)cc2)cc1", "3.6 µL/min/mg"),
    ("CN1Cc2ccc(-c3ccc(C[C@@H](C#N)NC(=O)C4(N)CCOCC4)cc3)cc2C1=O", "< 3 µL/min/mg"),
    ("CS(=O)(=O)c1cccc(-c2ccc(C[C@@H](C#N)NC(=O)C3(N)CCOCC3)cc2)c1", "< 3 µL/min/mg"),
    ("N#C[C@H](Cc1ccc(-c2ccccc2)cc1)NC(=O)C1(N)CCOCC1", "> 150 µL/min/mg"),
    ("CN1Cc2cc(-c3ccc(C[C@@H](C#N)NC(=O)[C@@H]4C[C@@H](O)CCN4)cc3)ccc2C1=O", "< 4 µL/min/mg"),
    ("N#Cc1ccc(-c2ccc(C[C@@H](C#N)NC(=O)[C@@H]3CCCCN3)cc2)cc1", "< 4 µL/min/mg"),
    ("N#Cc1ccc(-c2ccc(C[C@@H](C#N)NC(=O)C3(N)CCCCC3)cc2)cc1", "20 µL/min/mg"),
    ("N#Cc1ccc(-c2ccc(C[C@@H](C#N)NC(=O)[C@@H]3C[C@@H](O)CCN3)cc2)cc1", "< 3 µL/min/mg"),
    ("CN1Cc2cc(-c3ccc(C[C@@H](C#N)NC(=O)[C@@H]4CCCCN4)cc3)ccc2C1=O", "< 3 µL/min/mg"),
    ("CSc1cc(-c2ccc(C[C@@H](C#N)NC(=O)[C@@H]3CCCCN3)cc2)ccc1C#N", "7 µL/min/mg"),
]
